Reference source for all entries: PubChem BioAssay (NCI)

- Test system: COLO 205 colon
- protocol-text: NCI tumour cell line growth inhibition, 48 h; in the data active = GI50 below about 0.43 µM; inactive = the rest
The reply should be one of these categories: active, inactive

Name the outcome recorded for COc1ccc(NC(=O)n2nc(/C=C\c3ccc(O)c(OC)c3)cc2/C=C\c2ccc(O)c(OC)c2)cc1 in the assay.
inactive

Name the outcome recorded for COc1ccc([C@@H](O)c2cc(-c3ncnc4cc(N5CCOCC5)ccc34)c(F)cc2Cl)nn1 in the assay.
inactive

Name the outcome recorded for COc1cc2c(c(OC)c1OC)-c1ccc(O)c(=O)cc1[C@@H](NC(C)=O)CC2 in the assay.
inactive

Name the outcome recorded for O=C(Nc1ccc(Br)cc1)Nc1nn(C(=O)Nc2ccc(Br)cc2)c2ccccc12 in the assay.
inactive

Name the outcome recorded for CCOC(=O)Nc1nc2cc(OCC)ccc2s1 in the assay.
inactive

Name the outcome recorded for CNCCNc1nc2ccccc2c2c(=O)c3cc(F)ccc3sc12 in the assay.
inactive

====

Each entry below carries its recorded TGI.
- Test system: SK-MEL-5 melanoma
- protocol-text: NCI tumour cell line growth inhibition, 48 h
*1 amine or outer side, *2 acyl side, *3 side chain or, on linkers, in order; H or OH if unused. Where a SMILES comes first, the peptide text is derived from it. Bridges are numbered along the chain shown (N, C = ends). [ ]: non-standard residue; d: D form. ξ: configuration not given here. X35 = CC[C@H](C)[C@@H](N[*:1])[C@@H](O)CC(=O)O[C@H](C(=O)[C@H](C)C(=O)[*:2])C(C)C; NMeY = CN[C@@H](Cc1ccc(O)cc1)C(=O)O; dNMeL = CN[C@H](CC(C)C)C(=O)O; ξΔPro = O=C(O)C1C=CCN1
Field format: number, assumed µM, no unit text.

Here are 3 compounds together with their reported answers.
Simply: C[C@]12CC[C@@H](OC(=O)N(CCCl)N=O)C[C@@H]1CC[C@@H]1[C@@H]2CC[C@]2(C)C(=O)CC[C@@H]12 , SK-MEL-5 melanoma, TGI = 19.5

Simply: COc1ccc(NC(=O)n2nc(/C=C\c3ccc(O)c(OC)c3)cc2/C=C\c2ccc(O)c(OC)c2)cc1 , SK-MEL-5 melanoma, TGI = 16.1

Simply: Cn1cc(C2=C(c3cn(C)c4cc(N)ccc34)C(=O)NC2=O)c2ccccc21 , SK-MEL-5 melanoma, TGI = 5.76

Continuing:
Simply: COC(=O)[C@]1(C)CCC[C@@]2(C)[C@@H]3C[C@@H]4[C@H]5C[C@@]3(CC[C@@H]21)C[C@@]45C , SK-MEL-5 melanoma, TGI = 34.3

Simply: O=C(NCCCCCCO)c1cccc2cc3ccccc3nc12 , SK-MEL-5 melanoma, TGI = 32.9

Simply: CC1(C)[C@@H](OC(N)=O)C=C[C@]2(CO)[C@H]3CC[C@]4(C)[C@@H](c5ccc(=O)oc5)[C@@H](Cl)C[C@]4(O)C3=CC[C@@H]12 , SK-MEL-5 melanoma, TGI = 0.0158

Simply: O=C1/C(=C/c2ccc(O)cc2)CCC1CNc1ccccc1 (stereo not drawn) , SK-MEL-5 melanoma, TGI = 30.6

Simply: CC12CC=CCC1CCC1C2CCC2(C)C(c3ccc(=O)oc3)CCC12O (stereo not drawn) , SK-MEL-5 melanoma, TGI = 0.312

Simply: CC[C@H](C)[C@H]1NC(=O)[C@@H](NC(=O)[C@@H](CC(C)C)N(C)C(=O)C2C=CCN2)[C@@H](C)OC(=O)[C@H](Cc2ccc(OC)cc2)N(C)C(=O)[C@@H]2CCCN2C(=O)[C@H](CC(C)C)NC(=O)[C@@H](C)C(=O)[C@H](C(C)C)OC(=O)C[C@@H]1O (stereo partly drawn) (H-[ξΔPro][dNMeL]T[X35]LP[NMeY](Me); ester 3-C) , SK-MEL-5 melanoma, TGI = 0.0756

Simply: CC1CN=C(c2ccc(-c3nc(-c4ccc(C5=NCC(C)N5)cc4)nc(N(C)C)n3)cc2)N1 (stereo not drawn) , SK-MEL-5 melanoma, TGI = 14

Simply: NC1c2c(Cl)sc(Cl)c2C(=O)C1O (stereo not drawn) , SK-MEL-5 melanoma, TGI = 86.6

Simply: C/C(=C(/c1ccc(O)cc1)c1ccc(Cl)cc1)c1ccccc1 , SK-MEL-5 melanoma, TGI = 0.849

Simply: COc1ccc2c(c1)C(=O)C1CCC(=O)N1C2c1ccc2c(c1)OCO2 (stereo not drawn) , SK-MEL-5 melanoma, TGI = 24.9

Simply: COC(=O)[C@H]1[C@H]2C[C@@H]3c4[nH]c5cc(OC)ccc5c4CCN3C[C@H]2C[C@@H](OC(=O)/C=C/c2cc(OC)c(OC)c(OC)c2)[C@@H]1OC , SK-MEL-5 melanoma, TGI = 15.5

Simply: C=CCCCCn1c2ccccc2c2c(C)c3cnccc3c(C)c21 , SK-MEL-5 melanoma, TGI = 16.7
